src = patent US12581252B2

Measured Target: H1047R PIK3CA enzyme (Homo sapiens, UniProt P42336, H1047R)
Sequence (P42336 whole entry H1047R): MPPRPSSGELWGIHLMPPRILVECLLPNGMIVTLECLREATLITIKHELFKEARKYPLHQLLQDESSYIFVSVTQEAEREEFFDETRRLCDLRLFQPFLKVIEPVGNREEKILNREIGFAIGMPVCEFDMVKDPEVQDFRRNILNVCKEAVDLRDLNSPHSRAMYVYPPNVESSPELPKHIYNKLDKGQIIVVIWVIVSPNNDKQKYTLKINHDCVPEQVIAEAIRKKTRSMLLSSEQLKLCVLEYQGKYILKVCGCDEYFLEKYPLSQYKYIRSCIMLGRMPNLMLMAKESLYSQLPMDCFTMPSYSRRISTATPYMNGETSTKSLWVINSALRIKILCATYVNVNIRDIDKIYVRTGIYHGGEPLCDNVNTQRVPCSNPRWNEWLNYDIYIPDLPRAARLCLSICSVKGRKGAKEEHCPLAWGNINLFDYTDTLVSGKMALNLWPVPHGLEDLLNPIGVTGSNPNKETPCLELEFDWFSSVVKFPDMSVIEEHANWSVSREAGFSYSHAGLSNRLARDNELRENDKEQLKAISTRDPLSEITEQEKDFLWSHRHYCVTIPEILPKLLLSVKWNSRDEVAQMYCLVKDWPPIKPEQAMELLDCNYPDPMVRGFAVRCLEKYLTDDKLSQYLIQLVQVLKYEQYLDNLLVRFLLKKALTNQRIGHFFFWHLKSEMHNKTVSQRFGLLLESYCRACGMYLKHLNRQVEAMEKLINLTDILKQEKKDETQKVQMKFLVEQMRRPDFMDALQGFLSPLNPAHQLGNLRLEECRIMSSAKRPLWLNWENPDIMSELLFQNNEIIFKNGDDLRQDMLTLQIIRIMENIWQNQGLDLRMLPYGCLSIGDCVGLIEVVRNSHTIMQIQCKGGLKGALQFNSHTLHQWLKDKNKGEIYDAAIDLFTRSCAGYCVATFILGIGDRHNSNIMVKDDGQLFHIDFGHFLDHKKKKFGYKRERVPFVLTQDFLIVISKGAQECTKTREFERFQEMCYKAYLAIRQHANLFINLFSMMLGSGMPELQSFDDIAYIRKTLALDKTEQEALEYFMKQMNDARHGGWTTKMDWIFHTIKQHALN
Sequence (P27986 whole entry partner): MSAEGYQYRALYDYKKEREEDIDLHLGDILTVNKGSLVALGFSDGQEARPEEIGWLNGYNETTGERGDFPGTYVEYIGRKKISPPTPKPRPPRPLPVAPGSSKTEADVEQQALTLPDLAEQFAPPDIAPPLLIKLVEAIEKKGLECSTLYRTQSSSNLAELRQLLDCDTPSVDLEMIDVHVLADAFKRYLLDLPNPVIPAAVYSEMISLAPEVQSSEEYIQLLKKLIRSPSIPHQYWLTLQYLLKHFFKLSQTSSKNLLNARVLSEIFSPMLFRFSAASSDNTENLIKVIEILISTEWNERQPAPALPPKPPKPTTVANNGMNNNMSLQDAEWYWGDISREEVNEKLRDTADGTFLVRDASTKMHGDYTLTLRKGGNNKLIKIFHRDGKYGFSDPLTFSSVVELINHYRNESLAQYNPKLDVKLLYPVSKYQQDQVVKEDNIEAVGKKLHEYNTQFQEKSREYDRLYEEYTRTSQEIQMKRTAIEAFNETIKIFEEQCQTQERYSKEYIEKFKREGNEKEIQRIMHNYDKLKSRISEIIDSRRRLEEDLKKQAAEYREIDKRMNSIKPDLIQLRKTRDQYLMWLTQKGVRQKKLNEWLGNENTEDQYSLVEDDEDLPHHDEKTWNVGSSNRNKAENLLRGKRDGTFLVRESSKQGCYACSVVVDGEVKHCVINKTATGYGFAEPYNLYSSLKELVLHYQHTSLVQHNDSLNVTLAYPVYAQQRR
Assay Overview: ADP-Glo Biochemical PIK3CA Kinase Assay
Description: Compounds to be assayed were plated in 16 doses of 1:2 serial dilutions (20 nL volume each well) on a 1536-well plate, and the plate warmed to room temperature. […] To the well was added 1 μL of 200 μM ATP and 20 μM of diC8-PIP2 in Substrate Assay Buffer (50 mM HEPES pH7.4, 50 mM NaCl, 5 mM DTT and 0.03% CHAPS) to start the reaction, and the plate was shaken for 10 seconds, then spun briefly at 1500 rpm, and then incubated for 60 minutes at room temperature. […]
Measurement Type: IC50

• O=C1N[C@@H](c2cc(F)ccc2Cl)c2c(NC(=O)N3C[C@H](O)c4ccc(F)cc43)cccc21 (stereo in doubt) = 500 to 1000 nM
• Cc1cc(=O)[nH]cc1C(=O)Nc1cc(Br)cc2c1[C@@H](c1cc(F)ccc1Cl)NC2=O = 10000 to 100000 nM
• NCc1cc(NC(=O)N2C[C@](O)(C(F)F)c3cc(F)ccc32)c2c(c1)C(=O)N[C@@H]2c1cc(F)ccc1Cl (single isomer, unassigned) = 1000 to 10000 nM
• O=C1N[C@H](c2cc(F)ccc2Cl)c2c(NC(=O)N3C[C@](O)(C(F)(F)F)c4cc(F)ccc43)cc(-n3ncccc3=O)cc21 (single isomer, unassigned) = 1000 to 10000 nM
• O=C1NC(c2cc(F)ccc2Cl)c2c(NC(=O)N3CCC(C(F)(F)F)C3)cc(Br)cc21 (stereo not drawn) = 1000 to 10000 nM
• O=C1NC(c2cc(F)ccc2Cl)c2c(NC(=O)C3CCC(O)CC3)cc(-c3ccc4ncnn4c3)cc21 (stereo not drawn) = 10000 to 100000 nM
• Cc1ccccc1C1NC(=O)c2cccc(N)c21 (stereo not drawn) = 10000 to 100000 nM
• O=C(Nc1cc(-c2ccn3nc(Cl)nc3c2)cc2c1[C@@H](c1cc(F)ccc1Cl)NC2=O)c1cc(F)cc(C(F)(F)F)c1 [Compound I-1695] = 1000 to 10000 nM
• Cc1cc2nccnc2cc1-c1cc(NC(=O)c2cc(F)cc(C(F)(F)F)c2)c2c(c1)C(=O)NC2c1cc(F)ccc1Cl (stereo not drawn) = 100 to 500 nM
• O=C(Nc1cc(-c2ccc3ncnn3c2)cc2c1[C@H](c1cc(F)ccc1Cl)NC2=O)c1ccc(F)c(OC(F)(F)F)c1 (stereo in doubt) = 100 to 500 nM
• N#Cc1cnc2cc(F)c(-c3cc(NC(=O)c4cc(F)cc(C(F)(F)F)c4)c4c(c3)C(=O)NC4c3cc(F)ccc3Cl)cn12 (stereo not drawn) = ≤ 100 nM
• Cc1ccccc1C1NC(=O)c2cccc(NC(=O)N3CCc4ccccc43)c21 (stereo not drawn) = ≤ 100 nM
• O=C(Nc1cc(-c2ccc(C(F)F)nc2)cc2c1[C@@H](c1cc(F)ccc1Cl)NC2=O)c1cc(F)cc(C(F)(F)F)c1 = 1000 to 10000 nM
• CC(C)(O)Cc1cc(NC(=O)c2cc(F)cc(Cl)c2)c2c(c1)C(=O)NC2c1cc(F)ccc1Cl (stereo not drawn) = ≤ 100 nM
• CC(=O)c1cc(NC(=O)c2nsc3ccccc23)c2c(c1)C(=O)NC2c1cc(F)ccc1Cl (stereo not drawn) = 500 to 1000 nM
• C[C@](O)(CC#N)c1cc(NC(=O)c2cc(F)cc(C(F)(F)F)c2)c2c(c1)C(=O)N[C@@H]2c1cc(F)ccc1Cl (single isomer, unassigned) = 1000 to 10000 nM
• O=C(Nc1cc(-c2ccc3nc(C4CC4)nn3c2)cc2c1C(c1cc(F)ccc1Cl)NC2=O)c1cc(F)cc(C(F)(F)F)c1 (stereo not drawn) = ≤ 100 nM
• O=C1NC(c2cc(F)ccc2Cl)c2c1cc(-c1cnn(C(F)F)c1)cc2-c1nc2cc(C(F)(F)F)cc(F)c2[nH]1 (stereo not drawn) = 1000 to 10000 nM
